molecular target: Kappa-type opioid receptor (Homo sapiens); assay: Displacement of [3H]C1-977 from human kappa opioid receptor expressed in HEK293 cells at 10 uM; type: cell-based
Sequence (P41145 whole entry): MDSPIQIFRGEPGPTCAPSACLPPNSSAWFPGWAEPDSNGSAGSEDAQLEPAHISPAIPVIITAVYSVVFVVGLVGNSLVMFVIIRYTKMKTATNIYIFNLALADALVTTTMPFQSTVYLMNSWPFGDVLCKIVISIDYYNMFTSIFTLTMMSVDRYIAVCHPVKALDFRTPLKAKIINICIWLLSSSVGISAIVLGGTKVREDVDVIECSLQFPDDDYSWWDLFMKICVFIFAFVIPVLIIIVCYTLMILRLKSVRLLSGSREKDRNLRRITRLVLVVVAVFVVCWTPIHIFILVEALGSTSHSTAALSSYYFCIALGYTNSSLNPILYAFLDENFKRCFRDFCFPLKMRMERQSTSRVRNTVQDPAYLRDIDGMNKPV
Consider the following molecules; for each one, report its inhibition.
Quick note: give the figure in %, leave out the unit.

For Kappa-type opioid receptor (Homo sapiens), provide inhibition of `C=CCN1C[C@@H]2[C@H](c3ccccc3)CC[C@H]1CN2Cc1ccc(C(=O)N(CC)CC)cc1` please.
73

For Kappa-type opioid receptor (Homo sapiens), provide inhibition of `CCCN1C[C@@H]2[C@@H](c3ccccc3)CC[C@H]1CN2Cc1ccc(C(=O)N(CC)CC)cc1` please.
49

For Kappa-type opioid receptor (Homo sapiens), provide inhibition of `CCCN1C[C@@H]2C(c3ccccc3)=CC[C@H]1CN2Cc1ccc(C(=O)N(CC)CC)cc1` please.
22

For Kappa-type opioid receptor (Homo sapiens), provide inhibition of `C=CCN1C[C@H]2C(c3ccccc3)=CC[C@@H]1CN2Cc1ccc(C(=O)N(CC)CC)cc1` please.
31

* * *

Consider the following compounds; for each one, report its inhibition.
target: Kappa-type opioid receptor (Homo sapiens); experiment: Displacement of [3H]C1-977 from human kappa opioid receptor expressed in HEK293 cells at 10 uM; assay type: cell-based
# answer = value followed by unit

Which inhibition value is on record for `CCCN1C[C@@H]2[C@H](c3ccccc3)CC[C@H]1CN2Cc1ccc(C(=O)N(CC)CC)cc1` ?
63%

Which inhibition value is on record for `C=CCN1C[C@@H]2C(c3ccccc3)=CC[C@H]1CN2Cc1ccc(C(=O)N(CC)CC)cc1` ?
76%

Which inhibition value is on record for `C=CCN1C[C@@H]2[C@@H](c3ccccc3)CC[C@H]1CN2Cc1ccc(C(=O)N(CC)CC)cc1` ?
76%

* * *

Consider the following compounds; for each one, report its pKi.
On this scale, pKi is minus log10 of a concentration expressed in M (mol/L).

For Mu-type opioid receptor (Homo sapiens), provide pKi of `C=CCN1C[C@@H]2C(c3ccccc3)=CC[C@H]1CN2Cc1ccc(C(=O)N(CC)CC)cc1` please.
5.17

For Mu-type opioid receptor (Homo sapiens), provide pKi of `C=CCN1C[C@@H]2[C@@H](c3ccccc3)CC[C@H]1CN2Cc1ccc(C(=O)N(CC)CC)cc1` please.
5.20

For Mu-type opioid receptor (Homo sapiens), provide pKi of `CCCN1C[C@@H]2[C@H](c3ccccc3)CC[C@H]1CN2Cc1ccc(C(=O)N(CC)CC)cc1` please.
5.24

For Mu-type opioid receptor (Homo sapiens), provide pKi of `C=CCN1C[C@@H]2[C@H](c3ccccc3)CC[C@H]1CN2Cc1ccc(C(=O)N(CC)CC)cc1` please.
5.14

For Mu-type opioid receptor (Homo sapiens), provide pKi of `C=CCN1C[C@H]2C(c3ccccc3)=CC[C@@H]1CN2Cc1ccc(C(=O)N(CC)CC)cc1` please.
6.60

* * *

molecular target: Mu-type opioid receptor (Homo sapiens); assay: Displacement of [3H]naloxone from human mu opioid receptor expressed in CHOK1 cells at 10 uM; type: cell-based; details: CHO-K1
Sequence (P35372 whole entry): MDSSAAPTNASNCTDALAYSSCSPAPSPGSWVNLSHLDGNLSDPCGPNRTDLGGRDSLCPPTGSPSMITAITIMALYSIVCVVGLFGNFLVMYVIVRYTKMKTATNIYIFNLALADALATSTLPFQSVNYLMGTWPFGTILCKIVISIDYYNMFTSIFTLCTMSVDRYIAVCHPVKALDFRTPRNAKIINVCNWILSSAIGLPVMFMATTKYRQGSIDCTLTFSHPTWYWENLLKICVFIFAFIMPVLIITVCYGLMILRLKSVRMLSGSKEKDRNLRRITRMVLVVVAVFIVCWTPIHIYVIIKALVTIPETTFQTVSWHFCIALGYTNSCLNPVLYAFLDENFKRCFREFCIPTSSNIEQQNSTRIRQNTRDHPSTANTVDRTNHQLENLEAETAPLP
MEASURED_METRIC: inhibition (%)
Quick note: give the figure in %, leave out the unit.

Which inhibition value is on record for `C=CCN1C[C@H]2C(c3ccccc3)=CC[C@@H]1CN2Cc1ccc(C(=O)N(CC)CC)cc1` ?
91

Which inhibition value is on record for `C=CCN1C[C@@H]2[C@H](c3ccccc3)CC[C@H]1CN2Cc1ccc(C(=O)N(CC)CC)cc1` ?
56

Which inhibition value is on record for `C=CCN1C[C@@H]2[C@@H](c3ccccc3)CC[C@H]1CN2Cc1ccc(C(=O)N(CC)CC)cc1` ?
58

Which inhibition value is on record for `CCCN1C[C@@H]2[C@H](c3ccccc3)CC[C@H]1CN2Cc1ccc(C(=O)N(CC)CC)cc1` ?
61

Which inhibition value is on record for `CCCN1C[C@@H]2C(c3ccccc3)=CC[C@H]1CN2Cc1ccc(C(=O)N(CC)CC)cc1` ?
55

Which inhibition value is on record for `C=CCN1C[C@@H]2C(c3ccccc3)=CC[C@H]1CN2Cc1ccc(C(=O)N(CC)CC)cc1` ?
56

Which inhibition value is on record for `CCCN1C[C@@H]2[C@@H](c3ccccc3)CC[C@H]1CN2Cc1ccc(C(=O)N(CC)CC)cc1` ?
44
